- System Tested: MshE (Shewanella putrefaciens, UniProt A0ABX8XDM4)
- Construct: full-length, His-tag purified from E. coli BL21(DE3); strain inferred from locus prefix Sputcn32
- Sequence (A0ABX8XDM4 1-586): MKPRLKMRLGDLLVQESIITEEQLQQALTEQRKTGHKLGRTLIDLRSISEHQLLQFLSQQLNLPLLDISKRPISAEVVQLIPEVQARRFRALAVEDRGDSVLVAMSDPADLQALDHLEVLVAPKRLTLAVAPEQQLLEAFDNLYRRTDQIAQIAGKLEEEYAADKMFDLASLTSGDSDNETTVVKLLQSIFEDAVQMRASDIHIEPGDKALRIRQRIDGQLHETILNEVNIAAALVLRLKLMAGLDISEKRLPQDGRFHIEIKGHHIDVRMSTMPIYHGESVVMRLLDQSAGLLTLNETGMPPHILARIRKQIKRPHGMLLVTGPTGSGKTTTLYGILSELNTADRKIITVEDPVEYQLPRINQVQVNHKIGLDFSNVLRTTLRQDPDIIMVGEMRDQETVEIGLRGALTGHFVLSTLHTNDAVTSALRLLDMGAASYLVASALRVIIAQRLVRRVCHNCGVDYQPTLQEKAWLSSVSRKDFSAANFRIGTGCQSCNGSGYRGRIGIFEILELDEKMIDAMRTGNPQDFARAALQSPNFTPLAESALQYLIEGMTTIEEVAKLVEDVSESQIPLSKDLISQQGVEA
- Measurement Description: isothermal titration calorimetry
- Condition Description: 25 °C; one set of binding sites; value only in figure; read-out: dissociation constant
Attribute Measured: Kd
Kindly report the value followed by its unit.

Data request: State the recorded Kd for this entry: `Nc1nc2c(ncn2[C@@H]2O[C@@H]3CO[P@](=O)(O)O[C@H]4[C@@H](O)[C@H](n5cnc6c(=O)[nH]c(N)nc65)O[C@@H]4CO[P@](=O)(O)O[C@H]3[C@H]2O)c(=O)[nH]1`
Data returned: 9 µM
